The values you see were collected from PubChem BioAssay (EPA / NIEHS).

Entries and their AC50 values follow.
- Tested on: SRY-box transcription factor 2 (SOX2) Protein Expression, Deisenroth Lab, SOX2 (gene 6657)
- ASSAY_COMMENT: CCTE_Deisenroth_DEVTOX-GLR_Endo_SOX2: CCTE's DevTox GLR-Endo Assay Evaluation of SRY-box transcription factor 2 (SOX2) Protein Expression, Deisenroth Lab (AID 2284412)
Results filed as inconclusive are left out. Active and inactive are the calls of the source. Rule for the calls: active = hit-call score of the fitted dose curve at least 0.9, where 1 is the maximum; inconclusive = response in the unintended direction; inactive = score below 0.9. *1 amine or outer side, *2 acyl side, *3 side chain or, on linkers, in order; H or OH if unused. Where a SMILES comes first, the peptide text is derived from it. Bridges are numbered along the chain shown (N, C = ends). Roman numbers before positions name the chains, in order. [ ]: non-standard residue; d: D form. Actinocin(9to1) = Cc1c2oc3c(C)ccc(C(=O)[*:1])c3nc-2c(C(=O)[*:2])c(N)c1=O; NMeV = CN[C@H](C(=O)O)C(C)C; Sar = CNCC(=O)O

Past entries and their recorded results:
COMPOUND	RESULT
Cc1c2oc3c(C)ccc(C(=O)N[C@@H]4C(=O)N[C@H](C(C)C)C(=O)N5CCC[C@H]5C(=O)N(C)CC(=O)N(C)[C@@H](C(C)C)C(=O)O[C@@H]4C)c3nc-2c(C(=O)N[C@@H]2C(=O)N[C@H](C(C)C)C(=O)N3CCC[C@H]3C(=O)N(C)CC(=O)N(C)[C@@H](C(C)C)C(=O)O[C@@H]2C)c(N)c1=O (I: T[dV]P[Sar][NMeV] / II: T[dV]P[Sar][NMeV]; ester I:1-I:C, II:1-II:C; linker I:N-II:N via Actinocin(9to1))	0.00162 µM (active)
CCN(CC)CCNC(=O)c1c(C)[nH]c(/C=C2\C(=O)Nc3ccc(F)cc32)c1C	2.5 µM (active)
CN1CCN2c3ccccc3Cc3ccccc3C2C1 (stereo unspecified)	89.7 µM (active)
CC1=C(/C=C/C(C)=C/C=C/C(C)=C\C(=O)O)C(C)(C)CCC1	69.5 µM (active)
Cc1nc2sccn2c(=O)c1CCN1CCC(=C(c2ccc(F)cc2)c2ccc(F)cc2)CC1	20.4 µM (active)

// query Which AC50 value belongs to CNC(=O)c1cc(Oc2ccc(NC(=O)Nc3ccc(Cl)c(C(F)(F)F)c3)cc2)ccn1 ?
// result 1.45 µM (active)
